System: HCT116
Experiment: cell viability (CellTiter-Glo) relative to plate median (fraction of plate median); higher = more viable cells
Conditions: 5 µM; treatment time 24 h; reporter: TCF4/Wnt
Listing: cell viability of selected compounds
property: cell viability

{"compound": "O=C(O[C@@H]1Cc2c(O)cc(O)cc2O[C@@H]1c1cc(O)c(O)c(O)c1)c1cc(O)c(O)c(O)c1", "readout-value": 1.01}
{"compound": "CC(=O)Oc1ccc(O)cc1", "readout-value": 1.08}
{"compound": "CN1CCCC(n2nc(Cc3ccc(Cl)cc3)c3ccccc3c2=O)CC1 (stereo not given)", "readout-value": 1.01}
{"compound": "O=C1OC(=O)[C@H]2[C@@H]1[C@@H]1CC[C@H]2O1", "readout-value": 0.867}
{"compound": "CC(=O)c1oc(C)c2c1C(=O)c1cccc(O)c1C2=O", "readout-value": 1.01}
{"compound": "CC1(C)CC2C1CC[C@]1(C)CCC3C(C(=O)O)CC(=O)O[C@@]32C1 (stereo not given in full) [3-HYDROXY-4-(SUCCIN-2-YL)-CARYOLANE delta-LACTONE]", "readout-value": 0.971}
{"compound": "COC(=O)[C@@]1(C)CCC[C@]2(C)c3ccc(O)c(C(C)C)c3CCC12 (stereo not given in full)", "readout-value": 0.982}
{"compound": "CC1(C)CC23C(=O)CCC(O)C2(C)CCC13 (stereo not given)", "readout-value": 1.06}
{"compound": "CCCCN(CCCC)CCCOC(=O)c1ccc(N)cc1", "readout-value": 0.92}
{"compound": "CC1Cc2ccccc2N1NC(=O)c1ccc(Cl)c(S(N)(=O)=O)c1 (stereo not given)", "readout-value": 1.1}

###

Test system: DLD1
Assay: cell viability (CellTiter-Glo) relative to plate median (fraction of plate median); higher = more viable cells
Conditions: 5 µM; treatment time 24 h; reporter: 7TFP
property: cell viability

{"compound": "N=C(NCCCCCCNC(=N)NC(=N)Nc1ccc(Cl)cc1)NC(=N)Nc1ccc(Cl)cc1", "readout-value": 0.952}
{"compound": "COC1C(OC(C)=O)C(C)OC(OC2C(Oc3cccc4c(OC(C)=O)c5c(=O)oc6ccc(C)c7c(=O)oc(c34)c5c67)OC(C)C(OC(C)=O)C2OC(C)=O)C1OC(C)=O (stereo unspecified) [Chartreusin-pentaacetate]", "readout-value": 0.99}
{"compound": "COc1ccc(CCN(C)CCCC(C#N)(c2ccc(OC)c(OC)c2)C(C)C)cc1OC (stereo unspecified)", "readout-value": 1.04}
{"compound": "C[C@]12CC[C@@H](O)C[C@H]1CCc1ccccc12 [3alpha-HYDROXY-4,4-BISNOR-8,11,13-PODOCARPATRIENE]", "readout-value": 1.03}
{"compound": "C[N+](C)(C)C[C@H](O)CC(=O)[O-]", "readout-value": 0.964}
{"compound": "O=C(OC[C@H]1O[C@@H](OC(=O)c2cc(O)c(O)c(OC(=O)c3cc(O)c(O)c(O)c3)c2)[C@H](OC(=O)c2cc(O)c(O)c(OC(=O)c3cc(O)c(O)c(O)c3)c2)[C@@H](OC(=O)c2cc(O)c(O)c(OC(=O)c3cc(O)c(O)c(O)c3)c2)[C@@H]1OC(=O)c1cc(O)c(O)c(OC(=O)c2cc(O)c(O)c(O)c2)c1)c1cc(O)c(O)c(OC(=O)c2cc(O)c(O)c(O)c2)c1", "readout-value": 1.02}

###

Tested on: DLD1
Assay: cell viability (CellTiter-Glo) relative to plate median (fraction of plate median); higher = more viable cells
Settings: 10 µM; treatment time 24 h; reporter: 7TFP

{"structure-smiles": "COc1ncc(-c2ccc3nccc(-c4ccnnc4)c3c2)cc1NS(=O)(=O)c1ccc(F)cc1F", "cell viability": 0.84}
{"structure-smiles": "NCC(=O)Nc1ccc(-n2nc(C(F)(F)F)cc2-c2ccc3c(ccc4ccccc43)c2)cc1", "cell viability": 0.883}
{"structure-smiles": "COc1cc2c(N3CCN(C(=O)Nc4ccc(OC(C)C)cc4)CC3)ncnc2cc1OCCCN1CCCCC1", "cell viability": 1.09}
{"structure-smiles": "CC(=O)NCC(=O)N1[C@@H]2CC[C@H]1c1ccc(Nc3ncc(C(F)(F)F)c(NC4CCC4)n3)cc12", "cell viability": 0.907}
{"structure-smiles": "Cc1[nH]nc2ccc(-c3cncc(OC[C@@H](N)Cc4ccccc4)c3)cc12", "cell viability": 1.02}
{"structure-smiles": "COc1cc(Nc2ncc(F)c(Nc3ccc4c(n3)N(COP(=O)(O)O)C(=O)C(C)(C)O4)n2)cc(OC)c1OC", "cell viability": 0.895}
{"structure-smiles": "O=C1NC(=O)/C(=C\\c2ccc3nccnc3c2)S1", "cell viability": 1}
{"structure-smiles": "NC(=O)c1ccc(N(C(N)=O)c2c(F)cccc2F)nc1-c1ccc(F)cc1F", "cell viability": 0.966}
{"structure-smiles": "Cc1cn(-c2cc(NC(=O)c3ccc(C)c(Nc4nccc(-c5cccnc5)n4)c3)cc(C(F)(F)F)c2)cn1", "cell viability": 0.808}

###

Test system: DLD1
Experiment: TCF/Wnt firefly luciferase reporter signal relative to plate median (fraction of plate median); higher = higher Wnt reporter signal
Details: 5 µM; treatment time 24 h; reporter: 7TFP
property: TCF/Wnt firefly luciferase reporter signal

{"molecule": "C[C@@H]1CC2C3C[C@H](F)C4=CC(=O)C=C[C@]4(C)[C@@]3(F)[C@@H](O)C[C@]2(C)[C@@]1(O)C(=O)COC(=O)C(C)(C)C (stereo not given in full)", "target-system": "DLD1", "readout-value": 1.16}
{"molecule": "C[C@H]1CCC/C=C/C(=O)c2c(O)cc(O)cc2CC(=O)O1 [Dehydro-Curvularin]", "target-system": "DLD1", "readout-value": 1.09}
{"molecule": "N=C(N)N/N=C/c1c(Cl)cccc1Cl", "target-system": "DLD1", "readout-value": 1.02}
{"molecule": "Fc1ccc(C(c2ccc(F)cc2)N2CCN(C/C=C/c3ccccc3)CC2)cc1", "target-system": "DLD1", "readout-value": 0.961}
{"molecule": "CC(C)c1cccc(=O)c(O)c1", "target-system": "DLD1", "readout-value": 1.03}
{"molecule": "CC(C)OC(=O)C(C)(C)Oc1ccc(C(=O)c2ccc(Cl)cc2)cc1", "target-system": "DLD1", "readout-value": 0.917}
{"molecule": "CC(=O)Oc1ccc(-c2cc(=O)c3c(OC(C)=O)cc(OC(C)=O)cc3o2)cc1", "target-system": "DLD1", "readout-value": 1.01}
{"molecule": "NC(=O)c1cnccn1", "target-system": "DLD1", "readout-value": 1.02}
{"molecule": "COc1ccc(-c2oc3cc(OC)c(OC)c(OC)c3c(=O)c2OC)cc1", "target-system": "DLD1", "readout-value": 1.05}
{"molecule": "COc1ccc(-c2cc(=O)c3c(OC)c(OC)c(OC)cc3o2)cc1OC", "target-system": "DLD1", "readout-value": 1.07}

###

System: DLD1
Experiment: TCF/Wnt firefly luciferase reporter signal relative to plate median (fraction of plate median); higher = higher Wnt reporter signal
Details: 10 µM; treatment time 24 h; reporter: TCF4/Wnt
Where a name gives a salt, the structure may show the parent alone.
property: TCF/Wnt firefly luciferase reporter signal

{"molecule": "O=C(Nc1cc(C(F)(F)F)cc(C(F)(F)F)c1)c1cc(Cl)ccc1O", "target-system": "DLD1", "readout-value": 1.47}
{"molecule": "Cc1ccc(NC(=O)c2ccc(CN3CCN(C)CC3)cc2)cc1Nc1nc(-c2cccnc2)cs1 [Masitinib (AB1010)]", "target-system": "DLD1", "readout-value": 1.25}
{"molecule": "O=C(c1ccc(/C=C/c2n[nH]c3ccccc23)cc1)N1CCNCC1", "target-system": "DLD1", "readout-value": 1.46}
{"molecule": "CCN(CC)CCCCNc1ncc2cc(-c3cc(OC)cc(OC)c3)c(NC(=O)NC(C)(C)C)nc2n1", "target-system": "DLD1", "readout-value": 0.698}
{"molecule": "CCCCOc1c(C(=O)c2c(F)cc(C)cc2F)c[nH]c2nncc1-2", "target-system": "DLD1", "readout-value": 0.617}
{"molecule": "CN1CC[C@H](c2c(O)cc(O)c3c(=O)cc(-c4ccccc4Cl)oc23)[C@H](O)C1 [Flavopiridol hydrochloride]", "target-system": "DLD1", "readout-value": 0.227}
{"molecule": "CC(=O)Nc1nc(C)c(-c2ccc(Cl)c(S(=O)(=O)NCCO)c2)s1", "target-system": "DLD1", "readout-value": 1}
{"molecule": "Cc1cc(Nc2cc(N3CCN(C)CC3)nc(Sc3ccc(NC(=O)C4CC4)cc3)n2)n[nH]1 [VX-680 (MK-0457, Tozasertib)]", "target-system": "DLD1", "readout-value": 0.776}
